# TESTED ON: farnesoid X receptor (Homo sapiens, UniProt Q96RI1)
# Construct: fused on or other part: GST fused in frame to the N-terminus of the LBD (TR-FRET assay only); Nothing is fused on in the co-transfection assay
# Sequence (Q96RI1 244-471 isoform Q96RI1-2 limits assumed): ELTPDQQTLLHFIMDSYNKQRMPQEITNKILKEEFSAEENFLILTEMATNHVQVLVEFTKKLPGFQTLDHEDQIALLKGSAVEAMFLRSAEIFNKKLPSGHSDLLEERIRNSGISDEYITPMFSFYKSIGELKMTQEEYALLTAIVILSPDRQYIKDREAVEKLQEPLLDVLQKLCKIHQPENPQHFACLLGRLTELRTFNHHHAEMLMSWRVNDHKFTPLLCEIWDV
# ASSAY NAME: one or more of the in vitro assays described herein (TR-FRET assay, Example 75; co-transfection assay, Example 76);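 note: TR-FRET assay or luciferase reporter in CV-1 monkey kidney cells co-transfected with human FXR and RXRα, dose-response over 8 half-log concentrations, CDCA added in antagonist mode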
# CONDITIONS: one or more of the in vitro assays; read-out: EC50 (agonist / partial agonist)
ENDPOINT: EC50

>>> print(df.to_string())
                                   compound  readout_value
0  CCOC(=O)C1=CN(C(=O)c2ccc(F)cc2)CC(C)(C)c2c1[nH]c1cc(OC(=O)NCc3cccnc3)ccc21       < 0.2 µM
1  CCOC(=O)C1=CN(C(=O)c2ccc(F)cc2)CC(C)(C)c2c1[nH]c1cc(OC(=O)NC3CCCCC3)ccc21       < 0.2 µM
2  CCOC(=O)C1=CN(C(=O)c2ccc(F)c(F)c2)CC2(CCCC2)c2c1[nH]c1ccccc21       < 0.1 µM
3  CCOC(=O)C1=CN(C(=O)c2ccc(F)cc2)CC(C)(C)c2c1[nH]c1cc(OC(=O)NCc3cnc(C)cn3)ccc21       < 0.2 µM
4  CC1Cc2c([nH]c3ccccc23)C(C(=O)NC2CCC2)=CN1C(=O)c1ccc(F)cc1 (stereo not drawn)       < 0.1 µM
5  CC(C)OC(=O)C1=CN(C(=O)c2ccc(F)c(F)c2)CC(C)c2c1[nH]c1ccccc21 (stereo not drawn)       < 0.1 µM
6  CCOC(=O)C1=CN(C(=O)c2ccc(F)cc2)CC(C)(C)c2c1[nH]c1cc(OC(=O)NCCc3ccccn3)ccc21       < 0.2 µM
7  CCOC(=O)C1=CN(C(=O)c2ccc(F)c(F)c2)CC(C)c2c1[nH]c1ccccc21 (stereo not drawn)       < 0.1 µM
8  CCOC(=O)C1=CN(C(=O)c2ccc(F)cc2)CC(C)(C)c2c1[nH]c1ccc(F)cc21       < 0.1 µM
